Hi, quick share: literature pKi data for rat orexin 1 receptor (Rattus norvegicus, UniProt P56718), several sources combined.
For clarity, pKi is expressed as the negative log10 of concentration in mol/L.

• O=C(c1cccc(F)c1-c1ncccn1)N1C[C@@H]2CC[C@H]1[C@H](Nc1cnc(C(F)(F)F)cn1)C2 = 8.05
• Cc1ccc(-n2nccn2)c(C(=O)N2[C@H](C)[C@H]3C[C@@H](Oc4ccc(C(F)(F)F)nc4)[C@@H]2C3)n1 (relative stereo) = 6.26

Provide rat orexin 1 receptor (Rattus norvegicus, UniProt P56718) pKi reading for O=C(c1ccccc1-c1ncccn1)N1[C@H](CF)[C@@H]2CC[C@H]1[C@H](Oc1ccc(C(F)(F)F)cn1)C2 .
7.04

Provide rat orexin 1 receptor (Rattus norvegicus, UniProt P56718) pKi reading for Cc1cnc(C(=O)N2CCC[C@@H](Nc3ccc(Br)cn3)[C@@H]2C)c(-c2ncco2)c1 .
7.54

Provide rat orexin 1 receptor (Rattus norvegicus, UniProt P56718) pKi reading for C[C@@H]1[C@H]2C[C@@H](Oc3ccc(C(F)(F)F)cn3)[C@H](C2)N1C(=O)c1ccccc1-c1ccnc(F)c1 .
7.18

Provide rat orexin 1 receptor (Rattus norvegicus, UniProt P56718) pKi reading for [2H]C1([2H])[C@H]2C[C@@H]([C@@H]1Oc1ccc(Cl)cn1)N(C(=O)c1cccc(F)c1-n1nccn1)[C@@H]2C .
8.40
